B1: Intersectin-2, residues 1129 to 1183; numbered along this chain, Q9NZM3 (parent)
chain: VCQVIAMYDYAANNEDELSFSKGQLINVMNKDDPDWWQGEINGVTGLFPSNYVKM

Variants of: B1
Assay: abundance fitness (aPCA) (normalised: wild type 0, dead -1); higher = more abundant; growth selection in yeast, the domain comes from the species named
Conditions: Homo sapiens
Readings of abundance fitness for the listed variants
Response field accepts a number only; no unit should be typed.

Before answering, review these 8 worked examples.
T45I; -0.103
T45V; -0.092
V53M; -0.379
M29I; -0.036
L25I; 0.006
N13Q; 0.051
N42E; 0
L18Y; -0.966

Now consider a different variant.
Field abundance fitness (entry "A12K" ) reads -0.012

Cited source for all entries: the Human Domainome abundance scans (Beltran et al. 2025)
